Molecular target: NDM-1 (Klebsiella pneumoniae)
Sequence (C7C422 whole entry, looked up, species assumed): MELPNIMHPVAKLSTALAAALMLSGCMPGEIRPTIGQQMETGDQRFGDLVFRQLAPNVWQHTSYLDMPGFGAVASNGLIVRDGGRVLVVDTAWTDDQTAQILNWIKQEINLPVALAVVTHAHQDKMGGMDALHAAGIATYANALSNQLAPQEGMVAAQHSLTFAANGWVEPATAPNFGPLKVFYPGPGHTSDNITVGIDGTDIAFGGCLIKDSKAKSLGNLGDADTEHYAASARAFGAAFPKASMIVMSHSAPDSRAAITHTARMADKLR
Assay: biochemical
Assay type: biochemical
Conditions: fluorescence assay with CCF2-FA substrate; read-out: NDM-1 IC50
Note that class boundaries on IC50 are low value: < 6 nM; medium value: ≥ 6 nM and < 50 nM; high value: ≥ 50 nM

{"Molecule": "Cc1cccc(S(N)(=O)=O)c1-c1nnn[nH]1 [Example 150]", "Qualitative label": "high value"}
{"Molecule": "NS(=O)(=O)c1nccc(-c2ccc(CO)nc2)c1-c1nnn[nH]1 [Example 195]", "Qualitative label": "high value"}
{"Molecule": "NS(=O)(=O)c1cccc(-c2ncccn2)c1-c1nn[nH]n1 [Example 39]", "Qualitative label": "high value"}
{"Molecule": "NS(=O)(=O)c1c(C(F)(F)F)ccc(-c2ccc(C3CCN(C4CCNCC4)CC3)cc2)c1-c1nnn[nH]1 [Example 785]", "Qualitative label": "low value"}
{"Molecule": "NS(=O)(=O)c1cccc(CCC2CCCCC2)c1-c1nnn[nH]1 [Example 164]", "Qualitative label": "low value"}
{"Molecule": "NS(=O)(=O)c1cccc(COc2ccccc2)c1-c1nnn[nH]1 [Example 142]", "Qualitative label": "medium value"}
{"Molecule": "NS(=O)(=O)c1nccc(-c2ccc3cn[nH]c3c2)c1-c1nn[nH]n1 [Example 203]", "Qualitative label": "medium value"}
{"Molecule": "NS(=O)(=O)c1c(C(F)(F)F)ccc(N2C[C@@H](O)[C@H](O)C2)c1-c1nnn[nH]1 [Example 756]", "Qualitative label": "high value"}
{"Molecule": "CC(C1CCN(c2ccnc(S(N)(=O)=O)c2-c2nnn[nH]2)CC1)N1CCOCC1 (stereo not drawn) [Example 223]", "Qualitative label": "high value"}
{"Molecule": "Nc1[nH]nc2ccc(-c3cccc(S(N)(=O)=O)c3-c3nnn[nH]3)cc12 [Example 132]", "Qualitative label": "low value"}
{"Molecule": "NCCNC1CCN(c2ccc(C(F)(F)F)c(S(N)(=O)=O)c2-c2nnn[nH]2)CC1 [Example 829]", "Qualitative label": "high value"}
{"Molecule": "CN(Cc1ccccc1)c1ccnc(S(N)(=O)=O)c1-c1nnn[nH]1 [Example 229]", "Qualitative label": "high value"}
{"Molecule": "NCC1CCC(N2CC(c3ccc(-c4ccc(C(F)(F)F)c(S(N)(=O)=O)c4-c4nnn[nH]4)cc3)C2)CC1 (stereo not drawn) [Example 813]", "Qualitative label": "medium value"}
{"Molecule": "NS(=O)(=O)c1c(C(F)(F)F)ccc([C@H]2CC[C@@H](N)CC2)c1-c1nnn[nH]1 [Example 819]", "Qualitative label": "medium value"}
{"Molecule": "NS(=O)(=O)c1nccc(N2CCC(N3CCOCC3)CC2)c1-c1nnn[nH]1 [Example 239]", "Qualitative label": "high value"}
{"Molecule": "Nc1nc2c(F)cc(-c3ccc(C(F)(F)F)c(S(N)(=O)=O)c3-c3nnn[nH]3)cc2s1 [Example 743]", "Qualitative label": "low value"}
{"Molecule": "Nc1ccc(-c2ccnc(S(N)(=O)=O)c2-c2nn[nH]n2)cn1 [Example 215]", "Qualitative label": "high value"}
{"Molecule": "CC1C(=O)Nc2ccc(-c3cccc(S(N)(=O)=O)c3-c3nn[nH]n3)cc21 (stereo not drawn) [Example 73]", "Qualitative label": "medium value"}
{"Molecule": "NS(=O)(=O)c1nccc(-c2ccc3c(c2)CNC3=O)c1-c1nnn[nH]1 [Example 192]", "Qualitative label": "medium value"}
{"Molecule": "NC(=O)c1cccc(-c2cccc(S(N)(=O)=O)c2-c2nn[nH]n2)c1 [Example 81]", "Qualitative label": "medium value"}
{"Molecule": "Nc1cc(-c2cccc(S(N)(=O)=O)c2-c2nnn[nH]2)cc(N)n1 [Example 133]", "Qualitative label": "medium value"}
{"Molecule": "NC1CCCC1N1CCC(c2ccc(-c3ccc(C(F)(F)F)c(S(N)(=O)=O)c3-c3nnn[nH]3)cc2)CC1 (stereo not drawn) [Example 791]", "Qualitative label": "medium value"}
{"Molecule": "CS(=O)(=O)Nc1cccc(-c2cccc(S(N)(=O)=O)c2-c2nn[nH]n2)c1 [Example 86]", "Qualitative label": "medium value"}
{"Molecule": "NS(=O)(=O)c1cccc(C2CCCC2)c1-c1nnn[nH]1 [Example 160]", "Qualitative label": "medium value"}
{"Molecule": "NC(=O)c1cccc(-c2ccnc(S(N)(=O)=O)c2-c2nn[nH]n2)c1 [Example 204]", "Qualitative label": "high value"}
{"Molecule": "NC1CC(N2CC(c3ccc(-c4ccc(C(F)(F)F)c(S(N)(=O)=O)c4-c4nnn[nH]4)cc3)C2)C1 (stereo not drawn) [Example 807]", "Qualitative label": "low value"}
{"Molecule": "NC[C@H](N)C(=O)NC1CCC(c2ccc(C(F)(F)F)c(S(N)(=O)=O)c2-c2nnn[nH]2)CC1 (stereo partly drawn) [Example 837]", "Qualitative label": "medium value"}
{"Molecule": "NS(=O)(=O)c1cccc(-c2ccc3cn[nH]c3c2)c1-c1nn[nH]n1 [Example 90]", "Qualitative label": "low value"}
{"Molecule": "NS(=O)(=O)c1ccnc(-c2ccc(CO)cc2)c1-c1nnn[nH]1 [Example 188]", "Qualitative label": "medium value"}
{"Molecule": "Nc1nc(N)c2ccc(-c3ccc(C(F)(F)F)c(S(N)(=O)=O)c3-c3nnn[nH]3)cc2n1 [Example 750]", "Qualitative label": "low value"}
{"Molecule": "NS(=O)(=O)c1c(C(F)(F)F)ccc(-c2ccc(C3CCN(C4CC5CCC4N5)CC3)cc2)c1-c1nnn[nH]1 (stereo not drawn) [Example 788]", "Qualitative label": "low value"}
{"Molecule": "CS(=O)(=O)Nc1ccc(-c2ccnc(S(N)(=O)=O)c2-c2nn[nH]n2)cc1 [Example 206]", "Qualitative label": "medium value"}

====

System: Serratia marcescens expressing IMP-1 (CL5741)
Test: Antibiotic potentiation activity: synergistic concentration (MITC95) with imipenem, OD600 growth
Assay type: cell-based
Details: concentration giving 95% inhibition of bacterial growth
Entries and their measured Serratia marcescens expressing IMP-1 (CL5741) MITC95 follow.
Endpoint label: Serratia marcescens expressing IMP-1 (CL5741) MITC95 (µM)

{"Molecule": "NS(=O)(=O)c1cccc(C#CCN2CCS(=O)(=O)CC2)c1-c1nn[nH]n1", "Unit tag": "µM", "Observed result": 50}
{"Molecule": "NS(=O)(=O)c1cccc(-c2cnc3ccccc3c2)c1-c1nnn[nH]1", "Unit tag": "µM", "Observed result": 9.375}
{"Molecule": "CS(=O)(=O)c1ccc(-c2cccc(S(N)(=O)=O)c2-c2nn[nH]n2)cn1", "Unit tag": "µM", "Observed result": 12.5}
{"Molecule": "COc1ccc2cc(-c3cccc(S(N)(=O)=O)c3-c3nnn[nH]3)cnc2n1", "Unit tag": "µM", "Observed result": 37.5}
{"Molecule": "NC(=O)c1cccc(-c2cccc(S(N)(=O)=O)c2-c2nn[nH]n2)c1", "Unit tag": "µM", "Observed result": 37.5}
{"Molecule": "NS(=O)(=O)c1cccc(C2=CCOCC2)c1-c1nnn[nH]1", "Unit tag": "µM", "Observed result": 6.25}
{"Molecule": "CC(C)(C)OC(=O)N1CCN(c2ccc(-c3cccc(S(N)(=O)=O)c3-c3nn[nH]n3)cc2)CC1", "Unit tag": "µM", "Observed result": 12.5}
{"Molecule": "NS(=O)(=O)c1cccc(-c2ccc(-c3ccn[nH]3)cc2)c1-c1nn[nH]n1", "Unit tag": "µM", "Observed result": 12.5}
{"Molecule": "NS(=O)(=O)c1ccnc(-c2ccc(CO)cc2)c1-c1nnn[nH]1", "Unit tag": "µM", "Observed result": 37.5}
{"Molecule": "NS(=O)(=O)c1nccc(-c2ccc3c(c2)CC(=O)N3)c1-c1nn[nH]n1", "Unit tag": "µM", "Observed result": 50}
{"Molecule": "NS(=O)(=O)c1cccc(-c2cccc3c2CNC3=O)c1-c1nnn[nH]1", "Unit tag": "µM", "Observed result": 18.75}
{"Molecule": "NS(=O)(=O)c1nccc(-c2ccc3[nH]ncc3c2)c1-c1nn[nH]n1", "Unit tag": "µM", "Observed result": 6.25}
{"Molecule": "CS(=O)(=O)Nc1cccc(-c2cccc(S(N)(=O)=O)c2-c2nn[nH]n2)c1", "Unit tag": "µM", "Observed result": 3.125}
{"Molecule": "CS(=O)(=O)NC1CCC(c2cccc(S(N)(=O)=O)c2-c2nn[nH]n2)CC1 (centres unmarked)", "Unit tag": "µM", "Observed result": 3.125}
{"Molecule": "Cn1ccnc1-c1cccc(S(N)(=O)=O)c1-c1nn[nH]n1", "Unit tag": "µM", "Observed result": 25}
{"Molecule": "NS(=O)(=O)c1cccc(-c2cccnc2)c1-c1nn[nH]n1", "Unit tag": "µM", "Observed result": 50}
{"Molecule": "Cc1ccccc1Cc1cccc(S(N)(=O)=O)c1-c1nnn[nH]1", "Unit tag": "µM", "Observed result": 2.344}
{"Molecule": "NS(=O)(=O)c1cccc(-c2ccc(C(O)C(F)F)cc2)c1-c1nnn[nH]1 (centres unmarked)", "Unit tag": "µM", "Observed result": 3.125}
{"Molecule": "NS(=O)(=O)c1cccc(-c2ccc(C3CCNC3)cc2)c1-c1nnn[nH]1 (centres unmarked)", "Unit tag": "µM", "Observed result": 3.125}
{"Molecule": "NS(=O)(=O)c1cccc(C2=CCS(=O)(=O)CC2)c1-c1nnn[nH]1", "Unit tag": "µM", "Observed result": 37.5}
{"Molecule": "NS(=O)(=O)c1cccc(C2CCC(O)CC2)c1-c1nn[nH]n1 (centres unmarked)", "Unit tag": "µM", "Observed result": 6.25}
{"Molecule": "NS(=O)(=O)c1cccc(-c2ccc(C(=O)NCCO)cc2)c1-c1nn[nH]n1", "Unit tag": "µM", "Observed result": 53.13}
{"Molecule": "NS(=O)(=O)c1nccc(N2CCC(Cn3ccnc3)CC2)c1-c1nnn[nH]1", "Unit tag": "µM", "Observed result": 6.25}
{"Molecule": "NS(=O)(=O)c1cccc(-c2c[nH]c3nccnc23)c1-c1nn[nH]n1", "Unit tag": "µM", "Observed result": 15.63}
{"Molecule": "CC(C)Cc1cccc(S(N)(=O)=O)c1-c1nn[nH]n1", "Unit tag": "µM", "Observed result": 9.375}
{"Molecule": "CC1(c2ccc(-c3cccc(S(N)(=O)=O)c3-c3nn[nH]n3)cc2)SC(=O)NC1=O (centres unmarked)", "Unit tag": "µM", "Observed result": 3.906}
{"Molecule": "C[C@@H]1NC(=O)O[C@H]1c1ccc(-c2cccc(S(N)(=O)=O)c2-c2nnn[nH]2)cc1", "Unit tag": "µM", "Observed result": 6.25}
{"Molecule": "NS(=O)(=O)c1cccc(-c2ccc(N3CCCCC3)cc2)c1-c1nn[nH]n1", "Unit tag": "µM", "Observed result": 103.1}
{"Molecule": "Cn1cncc1C1CCN(c2ccnc(S(N)(=O)=O)c2-c2nnn[nH]2)CC1", "Unit tag": "µM", "Observed result": 18.75}
{"Molecule": "CC(C)(C)c1cccc(S(N)(=O)=O)c1-c1nnn[nH]1", "Unit tag": "µM", "Observed result": 6.25}
{"Molecule": "NS(=O)(=O)c1nccc(-c2ccc3c(c2)CNC3=O)c1-c1nnn[nH]1 [Example 196]", "Unit tag": "µM", "Observed result": 125}
{"Molecule": "COc1cc(-c2cccc(S(N)(=O)=O)c2-c2nnn[nH]2)ccn1", "Unit tag": "µM", "Observed result": 1.172}
{"Molecule": "NS(=O)(=O)c1cccc(-c2ccnc(CO)c2)c1-c1nn[nH]n1", "Unit tag": "µM", "Observed result": 50}
{"Molecule": "CS(=O)(=O)CCn1cc(-c2cccc(S(N)(=O)=O)c2-c2nn[nH]n2)cn1", "Unit tag": "µM", "Observed result": 18.75}
{"Molecule": "CCNC(=O)N1CCC(c2cccc(S(N)(=O)=O)c2-c2nn[nH]n2)CC1", "Unit tag": "µM", "Observed result": 12.5}
